inhibition at 1 mg/kg values by entry
# target-or-system: isomerase (Mus musculus, UniProt Q91ZQ5)
# Construct: from tissue; host or cells: eyes of living CD-1 (and Balb/c) mice, endogenous protein
# Sequence (Q91ZQ5 whole entry): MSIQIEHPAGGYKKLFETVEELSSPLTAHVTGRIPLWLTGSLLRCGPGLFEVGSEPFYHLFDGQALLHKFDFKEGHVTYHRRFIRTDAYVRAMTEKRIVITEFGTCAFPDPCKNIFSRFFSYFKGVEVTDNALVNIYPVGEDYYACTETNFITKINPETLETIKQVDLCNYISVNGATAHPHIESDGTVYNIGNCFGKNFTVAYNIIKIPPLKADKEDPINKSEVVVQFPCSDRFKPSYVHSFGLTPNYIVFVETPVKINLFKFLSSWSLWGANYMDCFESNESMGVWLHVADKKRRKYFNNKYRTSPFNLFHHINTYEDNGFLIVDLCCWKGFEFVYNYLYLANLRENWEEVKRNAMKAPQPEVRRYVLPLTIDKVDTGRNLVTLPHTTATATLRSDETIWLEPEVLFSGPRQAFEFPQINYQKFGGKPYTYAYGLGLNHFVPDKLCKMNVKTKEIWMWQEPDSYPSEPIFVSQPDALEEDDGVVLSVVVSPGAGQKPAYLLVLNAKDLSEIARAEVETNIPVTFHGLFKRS
# assay-comment: In vivo murine isomerase assay (recovery of 11-cis-retinal after photobleaching)
# run-conditions: po, mice, oral gavage, Dose 1 mg/kg, Time 2 hour
# Protocol: The capability of compounds described herein to inhibit isomerase was determined by an in vivo murine isomerase assay. […] Six-week old dark-adapted CD-1 (albino) male mice were orally gavaged with compound (0.03-3 mg/kg) dissolved in 100 μl corn oil containing 10% ethanol (five animals per group). […] Retinoids were extracted from the eye and the regeneration of 11-cis-retinal was assessed at various time intervals. […]

INSERT INTO results (compound, target_or_system, metric_name, observed_measurement) VALUES
  ('NCCC(O)c1cc(OCC2CCCCC2)ccn1 (stereo not shown)', 'isomerase (Mus musculus, UniProt Q91ZQ5)', 'inhibition at 1 mg/kg', '0%');

Exercise: Please give the documented inhibition at 1 mg/kg of NCC[C@@H](O)c1cccc(OCC2CCCCC2)n1
Key: 68.9%

Exercise: Please supply the value of reported inhibition at 1 mg/kg for the item NCCC(O)c1cccc(CCC2CCCCC2)n1 (stereo not shown)
Key: 29.3%

Exercise: Quote inhibition at 1 mg/kg reported for NCCC(O)c1ccc(OCC2CCCCC2)s1 (stereo not shown) please.
Key: 0%

====

# target-or-system: isomerase (Mus musculus)
# Construct: from tissue; host or cells: eyes of living CD-1 (and Balb/c) mice, endogenous protein
# assay-comment: In vivo murine isomerase assay (recovery of 11-cis-retinal after photobleaching)
# run-conditions: po, mice, oral gavage, Dose 1 mg/kg, Time 2 hour
metric-name: inhibition at 1 mg/kg (%)
Quick reminder: number only, in %, skip the unit.

INSERT INTO measurements (molecule, observed_measurement) VALUES
  ('NCCC(O)c1cccc(/C=C/C2CCCCC2)n1 (stereo not drawn)', 0),
  ('NCCC(O)c1cc(C#CC2(O)CCCCC2)cs1 (stereo not drawn)', 8.6);

# next molecule below
Exercise: Determine its reported inhibition at 1 mg/kg: NCC[C@@H](O)c1ccc(OCC2CCCCC2)s1
Key: 0
